Consider the following MIC values measured on Staphylococcus aureus (ATCC25923).
Where a name gives a salt, the structure may show the parent alone.
The answer consists of two parts: a number and, after it, its unit.

Missing value: MIC, Staphylococcus aureus (ATCC25923), entry Cc1cccc(C(CC(=O)NC[C@H]2CC[C@H](CN)CC2)c2cn(CC3CCCCC3)c3ccccc23)c1.Cl (stereo partly shown) [Compound 166] . Fill in?
9 µg/mL

Identify the measured MIC of COc1ccccc1-c1ccc2c(c1)c(C(CCN[C@H]1CC[C@H](N)CC1)c1cccc(C)c1)cn2CC1CCCCC1 (stereo partly shown) [Compound 229, hydrochloride salt] for Staphylococcus aureus (ATCC25923).
3 µg/mL

Requested read-out MIC, target or system Staphylococcus aureus (ATCC25923), entry Cl.NC1CCC(NC(=O)CC(c2ccnc(O)c2)c2cn(CC3CCCCC3)c3ccccc23)CC1 (stereo not shown) [Compound 157]
131 µg/mL

Request body: readout MIC, system Staphylococcus aureus (ATCC25923), query Cc1cccc(-c2ccc3c(c2)c(CC(=O)NC2CCC(N)CC2)cn3C(=O)C2CCCCC2)c1.Cl (stereo not shown) [Compound 259] . Return the value.
267 µg/mL

Request - read-out MIC | tested on Staphylococcus aureus (ATCC25923) | compound Cc1cccc(C(CC(=O)N[C@H]2CCCC[C@@H]2N)c2cn(CC3CCCCC3)c3ccccc23)c1.Cl (stereo partly shown) [Compound 189]
16 µg/mL

Record lookup: for Staphylococcus aureus (ATCC25923), what MIC belongs to Cl.N[C@H]1CC[C@H](NC(=O)CC(c2cccnc2)c2cn(CC3CCCCC3)c3ccccc23)CC1 (stereo partly shown) [Compound 138] ?
64 µg/mL

Lab note: need MIC for Cl.N[C@H]1CC[C@H](NC(=O)CCc2cn(CC3CCCCC3)c3ccc(Br)cc23)CC1 [Compound 156] on Staphylococcus aureus (ATCC25923), anyone have it?
16 µg/mL

Hello, I am looking for reported MIC with Staphylococcus aureus (ATCC25923) for Cl.NC1CCC(NC(=O)Cc2cn(CC3CCCCC3)c3ccc(-c4cccc(OC(F)(F)F)c4)cc23)CC1 (stereo not shown) [Compound 240] . Could you help?
9 µg/mL

====

# Test system: Staphylococcus aureus subsp. aureus (ATCC29213)
# method: MIC, broth microdilution (CLSI), Staphylococcus aureus ATCC29213
# Format: cell-based
# recorded conditions: Staphylococcus aureus, ATCC29213, Table XIV A. Gram-positive bacteria; read-out: S. aureus ATCC 29213 MIC
Where a name gives a salt, the structure may show the parent alone.
observable: MIC (µg/mL)
Please give a number only; it is taken to be in µg/mL.

Cc1cccc(CC(CC(=O)N[C@H]2CC[C@H](N)CC2)c2cn(CC3CCCCC3)c3ccccc23)c1.Cl (stereo partly shown) [Compound 202]	16
Cc1cccc(C(CCNC2CCCCC2)c2cn(CC3CCCCC3)c3ccccc23)c1.Cl (stereo not shown) [Compound 215]	2
NCCCNCCC(c1cccc(OC(F)(F)F)c1)c1cn(C2CCCCC2)c2ccccc12 (stereo not shown) [Compound 348]	4

Using the record for COc1ccccc1-c1ccc2c(c1)c(CCCN[C@H]1CC[C@H](N)CC1)cn2CC1CCCCC1 [Compound 237, hydrochloride salt] , report its MIC.
2

Find the recorded MIC belonging to Cc1cccc(C(CCNC2CCNCC2)c2cn(CC3CCCCC3)c3ccccc23)c1.Cl (stereo not shown) [Compound 122] and report it.
4

Fill blank: measured MIC of the compound Cc1cccc(C(CC(=O)NCCC2CCNCC2)c2cn(CC3CCCCC3)c3ccc(Br)cc23)c1.Cl (stereo not shown) [Compound 120] is ____.
2

Quick one: MIC for N[C@H]1CC[C@H](NC2CCC(c3cn(CC4CCCCC4)c4ccc(Br)cc34)CC2)CC1 (single isomer, unassigned) [Compound 266, hydrochloride salt] ?
4

====

# Tested on: A. baumannii ATCC 17978
Counter-ions that a name gives are not always drawn.
observable: MIC
Please format your answer as a value with the unit trailing.

Cc1cccc(C(CCNC2CCNCC2)c2cn(CC3CCCCC3)c3ccc(Br)cc23)c1.Cl (stereo not shown) [Compound 163]	4 µg/mL
NC1CCC(NCCC(c2cccc(OC(F)(F)F)c2)c2cn(CC3CCCCC3)c3ccccc23)CC1 (stereo not shown) [Compound 173, hydrochloride salt]	4 µg/mL
Cc1cccc(C(CCNC2CCC(N)CC2)c2cn(CC3CCCCCC3)c3ccccc23)c1 (stereo not shown) [Compound 245, hydrochloride salt]	4 µg/mL
Cc1cccc(CC(CC(=O)N[C@H]2CC[C@H](N)CC2)c2cn(CC3CCCCC3)c3ccccc23)c1.Cl (stereo partly shown) [Compound 202]	32 µg/mL
COc1ccccc1-c1ccc2c(c1)c(CCCN[C@H]1CC[C@H](N)CC1)cn2CC1CCCCC1 [Compound 237, hydrochloride salt]	8 µg/mL
N[C@H]1CC[C@H](NCCc2cn(CC3CCCCC3)c3ccc(-c4cccc(OC(F)(F)F)c4)cc23)CC1 [Compound 274, hydrochloride salt]	8 µg/mL

Please find the next compound below.
MIC lookup needed for Cc1cccc(-c2ccc3c(c2)c(CCN[C@H]2CC[C@H](N)CC2)cn3CC2CCCCC2)c1 [Compound 225, hydrochloride salt] , thanks.
2 µg/mL

====

# System: Staphylococcus aureus (ATCC25923)
Counter-ions that a name gives are not always drawn.
Threshold 20 µg/mL. MIC below it: 1 (yes). MIC at it or above: 0 (no).

Reference set, count: 5
Cc1cccc(C(CC(=O)NC2CCC(N)CC2)c2c(C)n(CC3CCCCC3)c3ccccc23)c1.Cl (centres unmarked)	1 (yes)
Cc1cccc(C(CC(=O)NCCC2CCNCC2)c2cn(CC3CCCCC3)c3ccc(F)cc23)c1.Cl (centres unmarked)	1 (yes)
COc1cccc(C(CC(=O)N[C@H]2CC[C@@H](N)CC2)c2cn(Cc3ccccc3)c3ccccc23)c1.Cl (some centres unmarked)	0 (no)
Cl.N[C@H]1CC[C@H](NC(=O)CC(c2ccccc2)c2cn(CC3CCCCC3)c3ccccc23)CC1 (some centres unmarked)	0 (no)
FC1(F)CCC(Cn2cc(CCNC3CCNCC3)c3cc(Br)ccc32)CC1 [Compound 290, hydrochloride salt]	1 (yes)

Quick check: does Cl.N[C@H]1CC[C@H](NC(=O)CCc2cc3ccccc3n2CC2CCCCC2)CC1 have MIC under 20 µg/mL?
0 (no)

Threshold test, MIC < 20 µg/mL: Cl.N[C@H]1CC[C@H](NC(=O)CC(c2cn(CC3CCCCC3)c3ccccc23)C2CCCCC2)CC1 (some centres unmarked)
1 (yes)

Lab note: confirm whether the reported MIC for this molecule is below 20 µg/mL, equality not counting. molecule: N[C@@H](Cc1cn(CC2CCCCC2)c2ccccc12)C(=O)N[C@H]1CC[C@H](N)CC1 [Compound 264, hydrochloride salt]
0 (no)

====

Structures can show the parent of a compound that is named as a salt.
Reported MIC for target or system K. pneumoniae ATCC 43816, by entry.
// return numeric value only (unit: µg/mL, not printed)

Please state recorded MIC (tested on K. pneumoniae ATCC 43816) of Cc1cccc(-c2ccc3c(c2)c(CCN[C@H]2CC[C@H](N)CC2)cn3CC2CCCCC2)c1 [Compound 225, hydrochloride salt]
2

For the record Cc1cccc(-c2ccc3c(c2)c(CCCNCC(O)CN)cn3C2CCCCC2)c1 (stereo not shown) , what value of MIC is listed for K. pneumoniae ATCC 43816?
4

Find the measured MIC: item N[C@H]1CC[C@H](NC2CCC(c3cn(CC4CCCCC4)c4ccc(Br)cc34)CC2)CC1 (single isomer, unassigned) [Compound 266, hydrochloride salt] , target or system K. pneumoniae ATCC 43816.
4

Query MIC on K. pneumoniae ATCC 43816 for Cc1cccc(C(CC(=O)NCCC2CCNCC2)c2cn(CC3CCCCC3)c3ccc(Br)cc23)c1.Cl (stereo not shown)
64

====

# Tested on: Enterococcus faecalis (ATCC29212)
# method: MIC, broth microdilution (CLSI), Enterococcus faecalis
# Assay type: cell-based
# recorded conditions: ATCC29212, Table XIV A. Gram-positive bacteria, read-out: E. faecalis ATCC 29212 MIC
Structures can show the parent of a compound that is named as a salt.
Overview of recorded MIC for various molecules
Hi! Could you send only the number? It should be in µg/mL, unit omitted.

The examples below pair each entry with its known result.
NC1CCC(NCCC(c2cccc(C(F)(F)F)c2)c2cn(CC3CCCCC3)c3ccccc23)CC1 (stereo not shown) [Compound 168, hydrochloride salt]	2
Cc1cccc(-c2ccc3c(c2)c(CCCNCCCN)cn3C2CCCCC2)c1.Cl.Cl [Compound 360]	2
Cc1cccc(C(CC(=O)Nc2ccc(CN)cc2)c2cn(CC3CCCCC3)c3ccccc23)c1.Cl (stereo not shown) [Compound 139]	4

For the next question, use this molecule.
Fill in: MIC of Cc1cccc(C(CC(=O)NCCC2CCNCC2)c2cn(CC3CCCCC3)c3ccc(Br)cc23)c1.Cl (stereo not shown) [Compound 120] is ___
4
